Assay target: T1, Hu/NoV/GII.3/CHDC4031/1988/U.S. VLP (human norovirus GII.3)
T1 construct: mature; baculovirus VLP; VP2 may be present
Experiment notes: VLP ELISA
Measured endpoint: minimum concentration of VHH able to recognize 100 ng of VLP (ng/well)
One number for each entry, in ng/well.

| Binder | Observed |
| --- | --- |
| VHH 5.4 (VHH, llama VHH, MD2004 library; pHEN6, C-terminal His6 tag; also called clone 5.4) VHH: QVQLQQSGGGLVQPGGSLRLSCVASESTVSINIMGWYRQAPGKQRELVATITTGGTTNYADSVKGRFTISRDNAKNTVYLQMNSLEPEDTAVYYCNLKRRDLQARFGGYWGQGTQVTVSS | 0.5 |
| VHH 7.5 (VHH, llama VHH, MD2004 library; pHEN6, C-terminal His6 tag; also called clone 7.5) VHH: QVKLQESGGGLVQAGESLRLSCAASGSNFSINGVGWYRQAPGKQRELVAGITNGGYTSYADSVKGRFTISTDNAKNTVYLQMNSLRPEDTAVYYCNANFQIHRSGADYVRNYWGQGTQVTVSA | 1 |
| VHH 19 (VHH, MD2004 library, subtractive biopanning; His6 tag; also called 19.1; clone 19) VHH: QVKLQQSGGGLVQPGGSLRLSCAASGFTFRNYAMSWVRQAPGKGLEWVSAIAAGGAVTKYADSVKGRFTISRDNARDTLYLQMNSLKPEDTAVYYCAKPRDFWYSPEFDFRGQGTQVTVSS | 0.5 |

Switching to the query record.
State the recorded minimum concentration of VHH able to recognize 100 ng of VLP for this entry: VHH 4.1 (VHH, llama VHH, MD2004 library; pHEN6, C-terminal His6 tag; also called clone 4.1) VHH: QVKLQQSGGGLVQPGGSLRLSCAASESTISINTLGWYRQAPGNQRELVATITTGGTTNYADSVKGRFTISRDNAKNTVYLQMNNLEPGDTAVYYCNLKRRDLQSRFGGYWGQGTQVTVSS
2
